system: NCI-H1975; assay: relative viability (nuclei count vs DMSO), 5 days (fraction); higher = more cells survive; details: first compound 0.005 µM
In this section we review reported relative viability values for a set of molecules.
Lab note: write the figure by itself, no unit.

molecule="Nc1ccn([C@@H]2O[C@H](CO)[C@@H](O)[C@@H]2O)c(=O)n1 [Cytarabine] + CCNC(=O)c1noc(-c2cc(C(C)C)c(O)cc2O)c1-c1ccc(CN2CCOCC2)cc1 [Luminespib] (partner 0.01 µM)" endpoint_name="relative viability" number=0.536
molecule="COc1cc2nccc(Oc3ccc(NC(=O)Nc4cc(C)on4)c(Cl)c3)c2cc1OC [Tivozanib] + CS(=O)(=O)CCNCc1ccc(-c2ccc3ncnc(Nc4ccc(OCc5cccc(F)c5)c(Cl)c4)c3c2)o1 [Lapatinib] (partner 2 µM)" endpoint_name="relative viability" number=0.792
molecule="Nc1ccn([C@@H]2O[C@H](CO)[C@@H](O)[C@@H]2O)c(=O)n1 [Cytarabine] + CC(=O)c1c(C)c2cnc(Nc3ccc(N4CCNCC4)cn3)nc2n(C2CCCC2)c1=O [Palbociclib] (partner 0.5 µM)" endpoint_name="relative viability" number=0.453

# input for lookup
Field request: relative viability | item: COc1cc2nccc(Oc3ccc(NC(=O)Nc4cc(C)on4)c(Cl)c3)c2cc1OC [Tivozanib] + COc1cc2c(Oc3ccc(NC(=O)C4(C(=O)Nc5ccc(F)cc5)CC4)cc3F)ccnc2cc1OCCCN1CCOCC1 [Foretinib] (partner 0.25 µM)
0.938

====

system: LCLC-97TM1; test: relative viability (nuclei count vs DMSO), 5 days (fraction); higher = more cells survive; details: first compound 0.005 µM
So basically, if relative viability comes in under 0.5 it's class 1, and if it's 0.5 or more it's class 0.

molecule="COc1cc2nccc(Oc3ccc(NC(=O)Nc4cc(C)on4)c(Cl)c3)c2cc1OC [Tivozanib] + Cc1nc(NC(=O)N2CCC[C@H]2C(N)=O)sc1-c1ccnc(C(C)(C)C(F)(F)F)c1 [Alpelisib] (partner 2 µM)" assigned_label="class 1"
molecule="COc1cc2nccc(Oc3ccc(NC(=O)Nc4cc(C)on4)c(Cl)c3)c2cc1OC [Tivozanib] + CS(=O)(=O)N1CCN(Cc2cc3nc(-c4cccc5[nH]ncc45)nc(N4CCOCC4)c3s2)CC1 [Pictilisib] (partner 1 µM)" assigned_label="class 1"
molecule="COc1cc2nccc(Oc3ccc(NC(=O)Nc4cc(C)on4)c(Cl)c3)c2cc1OC [Tivozanib] + COc1cc2c(Oc3ccc(NC(=O)C4(C(=O)Nc5ccc(F)cc5)CC4)cc3F)ccnc2cc1OCCCN1CCOCC1 [Foretinib] (partner 0.25 µM)" assigned_label="class 0"

# strict comparison: is reported relative viability < 0.5? input = COc1cc2nccc(Oc3ccc(NC(=O)Nc4cc(C)on4)c(Cl)c3)c2cc1OC [Tivozanib] + C[C@]1(O)C[C@@H](c2nc(-c3ccc4ccc(-c5ccccc5)nc4c3)c3c(N)nccn32)C1 [Linsitinib] (partner 1 µM)
class 1

Determine whether this molecule shows relative viability lower than 0.5 (ties excluded): COc1cc2nccc(Oc3ccc(NC(=O)Nc4cc(C)on4)c(Cl)c3)c2cc1OC [Tivozanib] + CC(=O)Nc1cccc(-n2c(=O)n(C3CC3)c(=O)c3c(Nc4ccc(I)cc4F)n(C)c(=O)c(C)c32)c1 [Trametinib] (partner 0.02 µM)
class 1

Regarding Nc1ccn([C@@H]2O[C@H](CO)[C@@H](O)[C@@H]2O)c(=O)n1 [Cytarabine] + Cc1nc(Nc2ncc(C(=O)Nc3c(C)cccc3Cl)s2)cc(N2CCN(CCO)CC2)n1 [Dasatinib] (partner 0.075 µM) , kindly confirm whether its relative viability is beneath 0.5.
class 0

Is 0.5 strictly greater than the molecule's reported relative viability? molecule: COc1cc2nccc(Oc3ccc(NC(=O)Nc4cc(C)on4)c(Cl)c3)c2cc1OC [Tivozanib] + CC(C)C[C@H](NC(=O)[C@H](Cc1ccccc1)NC(=O)c1cnccn1)B(O)O [Bortezomib] (partner 0.002 µM)
class 0

The reported numbers originate from the supplement of paper PMC10307832.
